# assay-target: HeLa cell extract proteins (Homo sapiens)
# Construct: endogenous in cells; host or cells: HeLa cell extract
# Type: binding
# condition-context: HeLa; protein SEC61A1
fold changes relative to vehicle control values, listed per item
recorded-metric: fold changes relative to vehicle control

[[record]]
molecule = "NCCCNc1ccc(C(=O)NC(CCC(=O)O)C(=O)O)cc1 (stereo not drawn)"
measured_result = 1.06

[[record]]
molecule = "CCCCCCOc1cccc(Cc2cnc(N)nc2N)c1"
measured_result = 1.01

[[record]]
molecule = "Nc1nc2cccc(-c3ccccc3)c2n1Cc1ccc(Cl)c(Cl)c1"
measured_result = 1

[[record]]
molecule = "NCCOCCOCC(=O)Nc1nc2ncc(CNc3ccc(C(=O)NC(CCC(=O)O)C(=O)O)cc3)nc2c(=O)[nH]1 (stereo not drawn)"
measured_result = 1.03

[[record]]
molecule = "CCCCCCOc1ccc(Cc2cnc(N)nc2N)cc1"
measured_result = 1.02

[[record]]
molecule = "Nc1nc2c(c(=O)[nH]1)N(C=O)C(CNc1ccc(C(=O)N[C@@H](CCC(=O)O)C(=O)O)cc1)CN2 (stereo partly drawn)"
measured_result = 0.99


###

fold changes relative to vehicle control values, listed per item
# assay-target: HeLa cell extract proteins (Homo sapiens)
# Construct: endogenous in cells; host or cells: HeLa cell extract
# Format: binding
# condition-context: HeLa; protein DYNC1I2
recorded-metric: fold changes relative to vehicle control

[[record]]
molecule = "NCCCNc1ccc(C(=O)NC(CCC(=O)O)C(=O)O)cc1 (stereo not drawn)"
recorded_metric = "fold changes relative to vehicle control"
measured_result = 0.95

[[record]]
molecule = "Nc1nc2c(c(=O)[nH]1)N(C=O)C(CNc1ccc(C(=O)N[C@@H](CCC(=O)O)C(=O)O)cc1)CN2 (stereo partly drawn)"
recorded_metric = "fold changes relative to vehicle control"
measured_result = 0.9

[[record]]
molecule = "CCCCCCOc1ccc(Cc2cnc(N)nc2N)cc1"
recorded_metric = "fold changes relative to vehicle control"
measured_result = 0.88

[[record]]
molecule = "NCCOCCOCC(=O)Nc1nc2ncc(CNc3ccc(C(=O)NC(CCC(=O)O)C(=O)O)cc3)nc2c(=O)[nH]1 (stereo not drawn)"
recorded_metric = "fold changes relative to vehicle control"
measured_result = 0.93

[[record]]
molecule = "CCCCCCOc1cccc(Cc2cnc(N)nc2N)c1"
recorded_metric = "fold changes relative to vehicle control"
measured_result = 1.13

[[record]]
molecule = "Nc1nc2cccc(-c3ccccc3)c2n1Cc1ccc(Cl)c(Cl)c1"
recorded_metric = "fold changes relative to vehicle control"
measured_result = 0.89


###

# assay-target: HeLa cell extract proteins (Homo sapiens, UniProt P30040)
# Construct: endogenous in cells; host or cells: HeLa cell extract
# Type: binding
# condition-context: protein ERP29; HeLa
recorded-metric: fold changes relative to vehicle control

[[record]]
compound = "CCCCCCOc1cccc(Cc2cnc(N)nc2N)c1"
assay_target = "HeLa cell extract proteins (Homo sapiens, UniProt P30040)"
recorded_metric = "fold changes relative to vehicle control"
measured_result = 1.77

[[record]]
compound = "Nc1nc2c(c(=O)[nH]1)N(C=O)C(CNc1ccc(C(=O)N[C@@H](CCC(=O)O)C(=O)O)cc1)CN2 (stereo partly drawn)"
assay_target = "HeLa cell extract proteins (Homo sapiens, UniProt P30040)"
recorded_metric = "fold changes relative to vehicle control"
measured_result = 0.97

[[record]]
compound = "CCCCCCOc1ccc(Cc2cnc(N)nc2N)cc1"
assay_target = "HeLa cell extract proteins (Homo sapiens, UniProt P30040)"
recorded_metric = "fold changes relative to vehicle control"
measured_result = 1.29

[[record]]
compound = "Nc1nc2cccc(-c3ccccc3)c2n1Cc1ccc(Cl)c(Cl)c1"
assay_target = "HeLa cell extract proteins (Homo sapiens, UniProt P30040)"
recorded_metric = "fold changes relative to vehicle control"
measured_result = 0.94

[[record]]
compound = "NCCCNc1ccc(C(=O)NC(CCC(=O)O)C(=O)O)cc1 (stereo not drawn)"
assay_target = "HeLa cell extract proteins (Homo sapiens, UniProt P30040)"
recorded_metric = "fold changes relative to vehicle control"
measured_result = 0.88

[[record]]
compound = "NCCOCCOCC(=O)Nc1nc2ncc(CNc3ccc(C(=O)NC(CCC(=O)O)C(=O)O)cc3)nc2c(=O)[nH]1 (stereo not drawn)"
assay_target = "HeLa cell extract proteins (Homo sapiens, UniProt P30040)"
recorded_metric = "fold changes relative to vehicle control"
measured_result = 1.24


###

fold changes relative to vehicle control values, listed per item
# assay-target: HeLa cell extract proteins (Homo sapiens, UniProt Q5H9R7)
# Construct: endogenous in cells; host or cells: HeLa cell extract
# Sequence (Q5H9R7 1-873): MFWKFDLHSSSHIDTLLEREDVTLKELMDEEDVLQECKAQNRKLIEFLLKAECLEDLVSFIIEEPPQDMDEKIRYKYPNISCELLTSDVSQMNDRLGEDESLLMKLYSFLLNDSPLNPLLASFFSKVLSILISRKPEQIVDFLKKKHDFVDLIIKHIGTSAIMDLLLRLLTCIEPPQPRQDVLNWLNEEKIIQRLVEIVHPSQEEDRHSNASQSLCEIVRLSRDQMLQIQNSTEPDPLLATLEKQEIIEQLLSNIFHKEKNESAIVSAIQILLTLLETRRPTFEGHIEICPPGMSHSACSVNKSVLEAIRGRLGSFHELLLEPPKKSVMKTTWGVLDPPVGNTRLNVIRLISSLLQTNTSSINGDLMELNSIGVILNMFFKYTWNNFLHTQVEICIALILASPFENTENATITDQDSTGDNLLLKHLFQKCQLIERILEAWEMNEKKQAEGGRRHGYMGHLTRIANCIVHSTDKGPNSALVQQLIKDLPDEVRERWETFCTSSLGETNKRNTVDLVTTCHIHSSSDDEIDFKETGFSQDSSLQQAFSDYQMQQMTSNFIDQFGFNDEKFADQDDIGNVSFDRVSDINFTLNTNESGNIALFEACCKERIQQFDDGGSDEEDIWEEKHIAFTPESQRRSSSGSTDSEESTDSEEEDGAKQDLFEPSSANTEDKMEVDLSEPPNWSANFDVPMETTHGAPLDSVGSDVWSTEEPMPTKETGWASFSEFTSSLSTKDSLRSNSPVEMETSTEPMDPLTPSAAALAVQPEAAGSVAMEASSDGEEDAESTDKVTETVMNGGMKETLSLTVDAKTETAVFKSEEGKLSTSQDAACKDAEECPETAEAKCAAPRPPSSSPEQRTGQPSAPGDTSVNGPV
# Type: binding
# condition-context: HeLa; protein SAPS3
recorded-metric: fold changes relative to vehicle control

[[record]]
compound = "Nc1nc2cccc(-c3ccccc3)c2n1Cc1ccc(Cl)c(Cl)c1 [compound 3]"
measured_result = 1.11

[[record]]
compound = "CCCCCCOc1ccc(Cc2cnc(N)nc2N)cc1 [compound 1]"
measured_result = 0.96

[[record]]
compound = "NCCOCCOCC(=O)Nc1nc2ncc(CNc3ccc(C(=O)NC(CCC(=O)O)C(=O)O)cc3)nc2c(=O)[nH]1 (stereo not drawn) [compound 6]"
measured_result = 0.88

[[record]]
compound = "Nc1nc2c(c(=O)[nH]1)N(C=O)C(CNc1ccc(C(=O)N[C@@H](CCC(=O)O)C(=O)O)cc1)CN2 (stereo partly drawn) [LEU, leucovorin]"
measured_result = 0.94

[[record]]
compound = "CCCCCCOc1cccc(Cc2cnc(N)nc2N)c1 [compound 2]"
measured_result = 1.09

[[record]]
compound = "NCCCNc1ccc(C(=O)NC(CCC(=O)O)C(=O)O)cc1 (stereo not drawn) [compound 7]"
measured_result = 0.93


###

# assay-target: HeLa cell extract proteins (Homo sapiens)
# Construct: endogenous in cells; host or cells: HeLa cell extract
# Format: binding
# condition-context: HeLa; protein NUP107
recorded-metric: fold changes relative to vehicle control

[[record]]
compound = "Nc1nc2c(c(=O)[nH]1)N(C=O)C(CNc1ccc(C(=O)N[C@@H](CCC(=O)O)C(=O)O)cc1)CN2 (stereo partly drawn)"
recorded_metric = "fold changes relative to vehicle control"
measured_result = 1.01

[[record]]
compound = "NCCCNc1ccc(C(=O)NC(CCC(=O)O)C(=O)O)cc1 (stereo not drawn)"
recorded_metric = "fold changes relative to vehicle control"
measured_result = 1.26

[[record]]
compound = "CCCCCCOc1ccc(Cc2cnc(N)nc2N)cc1"
recorded_metric = "fold changes relative to vehicle control"
measured_result = 0.98

[[record]]
compound = "NCCOCCOCC(=O)Nc1nc2ncc(CNc3ccc(C(=O)NC(CCC(=O)O)C(=O)O)cc3)nc2c(=O)[nH]1 (stereo not drawn)"
recorded_metric = "fold changes relative to vehicle control"
measured_result = 1.18

[[record]]
compound = "Nc1nc2cccc(-c3ccccc3)c2n1Cc1ccc(Cl)c(Cl)c1"
recorded_metric = "fold changes relative to vehicle control"
measured_result = 1.07

[[record]]
compound = "CCCCCCOc1cccc(Cc2cnc(N)nc2N)c1"
recorded_metric = "fold changes relative to vehicle control"
measured_result = 1.03

